Recorded GI50 values for a group of compounds are listed next.
tested on: RXF 393; experiment: NCI tumour cell line growth inhibition, 48 h
The source made the active and inactive calls. Cut-off read from the data, not from the text of the source: active = GI50 up to about 1.1 µM and inactive = higher.

Requested field: GI50. Item: S=C1CC(c2ccccc2)Sc2cc(Cl)ccc2N1 (stereo not given)
6.55 µM (inactive)

Try COc1cc(C2SCCCCCCCCCCSC(c3ccc(O)c(OC)c3)SCCCCCCCCCCS2)ccc1O (stereo not given) next.
> 100 µM (inactive)

Try NC1C2C=CC(C2)C1C(=O)O (stereo not given) next.
> 100 µM (inactive)

Try "COc1ccc2cc(CNCCCCCCNC(=O)Nc3cccc4ccccc34)ccc2c1" next.
> 100 µM (inactive)

Try "CSc1c(C#N)c(N)n2c1C(=O)N(c1ccccc1)C2=S" next.
> 100 µM (inactive)

Continuing:
Requested field: GI50. Item: "Cc1cc(=O)nc(S(=O)(=O)NC(=S)Nc2ccc(Br)cc2)[nH]1"
20.5 µM (inactive)

Try "CCOC(=O)C(CCc1ncnc2c1ncn2Cc1ccccc1)(CCc1ncnc2c1ncn2Cc1ccccc1)C(=O)OCC" next.
32.4 µM (inactive)

Try "O=C(O)c1cc2ccccc2c(Cc2c(O)c(C(=O)O)cc3ccccc23)c1O" next.
> 100 µM (inactive)

Try "Cn1cc(-c2cnc(-c3cn(C)c4ccccc34)cn2)c2ccccc21" next.
3.25 µM (inactive)

Try "COc1cc(Cc2nccc3cc(OC)c(OC)cc23)c(/N=N/N(C)C)cc1OC" next.
2.99 µM (inactive)
